# assayMethodText: NCI Yeast Anticancer Drug Screen. Data for the sgs1 mgt1 strain (AID 161)
# conditionDetails: S. cerevisiae sgs1 mgt1 strain, at 50.0 µM
# Experimental: Growth inhibition of yeast strains with defined genetic alterations is measured as a screen for potential anti-cancer activity. Selected strains with alterations in DNA damage repair or cell cycle control were exposed to compounds and growth inhibition was measured relative to vehicle treated controls. The strain used in this assay is sgs1 mgt1
Compounds without any hit were thinned out: in the full panel of roughly 79,000, 15% have a hit. Active and inactive are the calls of the source. No stated cut-off is given here; in the data, active means growth inhibition above about 70%; inactive means the rest.
Classes used: TRUE = active, FALSE = inactive

{"columns": ["molecule", "class"],
 "data": [
  ["CCOc1ccc(/C=N/N=C(N)N)cc1OCC", "FALSE"],
  ["CC(=O)C1CCCCC1", "FALSE"],
  ["CNC(=O)c1ccccc1CC1(O)c2ccccc2Oc2ccccc21", "FALSE"],
  ["COC(=O)Nc1cccc(Cl)c1OC", "FALSE"],
  ["CCOC(=O)c1ccc(Nc2sc(C(=O)c3cccc([N+](=O)[O-])c3)c(N)c2C#N)cc1", "FALSE"],
  ["S=C1CCCCCN1", "FALSE"],
  ["CCc1ccc(/C(C#N)=C/C=C/c2ccccc2)cc1", "FALSE"],
  ["CC(=O)OC(OC(C)=O)C1CCCO1 (centres undefined)", "FALSE"],
  ["Cc1nc2ccccc2c2nnc(SCC(=O)N(Cc3ccccc3)c3ccccc3)n12", "FALSE"],
  ["CO[C@H]1C[C@@H]2CC[C@@H](C)[C@@](O)(O2)C(=O)C(=O)N2CCCC[C@H]2C(=O)O[C@H]([C@H](C)C[C@@H]2CC[C@@H](O)[C@H](OC)C2)CC(=O)[C@H](C)C=C(C)[C@@H](O)[C@@H](OC)C(=O)[C@H](C)C[C@H](C)/C=C/C=C/C=C1C", "TRUE"],
  ["O=C(O)/C=C/C(=O)NCc1ccccc1", "FALSE"],
  ["COc1ccc2c(c1)CCc1c-2n[nH]c1-c1[nH]nc2c1CCc1cc(OC)ccc1-2", "FALSE"],
  ["COc1ccc(C(=O)C(Br)C(Br)C(=O)O)cc1 (centres undefined)", "FALSE"],
  ["C1CNC(C2=NCCN2)=N1", "FALSE"],
  ["FC(F)(F)c1ccc2c(c1)N(CCCN1CCN(C3CC3)CC1)c1ccccc1S2", "TRUE"],
  ["COc1ccc(C(C)C=O)cc1 (centres undefined)", "FALSE"],
  ["C=CCc1cc(C(C)=O)cc(OC)c1O", "FALSE"],
  ["CCCCC1C(=O)N(c2ccccc2)N(c2ccccc2)C1=O", "FALSE"],
  ["N=c1c(C(=O)OCc2ccccc2)ncc(CCl)n1O", "TRUE"],
  ["O=C(O)[C@@H]1[C@H]2C[C@H]3c4[nH]c5ccccc5c4CCN3C[C@@H]2CC[C@@H]1O", "FALSE"],
  ["CC(CC(=O)c1ccccc1)c1ccccc1 (centres undefined)", "FALSE"],
  ["COc1cccc(Sc2ccc([N+](=O)[O-])c3no[n+]([O-])c23)c1", "TRUE"],
  ["COc1ccc(-c2cc3c(nn2)-c2ccccc2C3=O)cc1", "FALSE"],
  ["NC(C(=O)O)C(O)c1ccco1 (centres undefined)", "FALSE"]
]}
